methodDescription: Absorption maximum (λmax) and log ε of the dye in solution
Assay type: physicochemical
measurementConditions: CHCl3
endpointLabel: λ max.

c1ccc(Nc2ccc(-c3cc(-c4ccccc4)cc(-c4ccccc4)[s+]3)cc2)cc1 [Example 20] = 650
c1ccc(CN(Cc2ccccc2)c2ccc(-c3cc(-c4ccccc4)cc(-c4ccccc4)[s+]3)cc2)cc1 [Example 11] = 602
Cc1cc(-c2cc(-c3ccccc3)cc(-c3ccccc3)[s+]2)ccc1N [Example 12] = 600
CN(C)c1ccc(-c2cc(-c3ccccc3)cc(-c3ccccc3)[s+]2)cc1 [Example 6] = 622
Cc1cc(N(C)C)ccc1-c1cc(-c2ccccc2)cc(-c2ccccc2)[s+]1 [Example 16] = 616
CCN(CC)c1ccc(-c2cc(-c3ccccc3)cc(-c3ccccc3)[s+]2)cc1 [Example 7] = 638

Lab note: each compound below needs its λ max. filled in.
1. Nc1ccc(-c2cc(-c3ccccc3)cc(-c3ccccc3)[s+]2)c(Cl)c1 [Example 27]
2. OCCN(CCO)c1ccc(-c2cc(-c3ccccc3)cc(-c3ccccc3)[s+]2)cc1 [Example 26]
3. COc1cc(-c2cc(-c3ccccc3)cc(-c3ccccc3)[s+]2)c(OC)cc1N [Example 25]
4. Cc1cc(N)ccc1-c1cc(-c2ccccc2)cc(-c2ccccc2)[s+]1 [Example 14]
5. COc1cc(-c2cc(-c3ccccc3)cc(-c3ccccc3)[s+]2)ccc1N [Example 21]
6. CCN(Cc1ccccc1)c1ccc(-c2cc(-c3ccccc3)cc(-c3ccccc3)[s+]2)cc1 [Example 10]
7. c1ccc(-c2cc(-c3ccccc3)[s+]c(-c3cc4c5c(c3)CCCN5CCC4)c2)cc1 [Example 31]

1. 564
2. 638
3. 602
4. 564
5. 612
6. 620
7. 675 nm

Request the reported λ max. associated with Nc1ccc(-c2cc(-c3ccccc3)cc(-c3ccccc3)[s+]2)cc1N [Example 29] 654

Origin of the recorded values: patent US4368329A
